# TESTED TARGET: human progesterone receptor A (Homo sapiens)
# Construct: expressed in transfected cells; host or cells: SK-N-MC human neuroblastoma cells, stably transfected with pRChPR-A-neo and pMMTV-LUC
# Sequence (P06401 165-933): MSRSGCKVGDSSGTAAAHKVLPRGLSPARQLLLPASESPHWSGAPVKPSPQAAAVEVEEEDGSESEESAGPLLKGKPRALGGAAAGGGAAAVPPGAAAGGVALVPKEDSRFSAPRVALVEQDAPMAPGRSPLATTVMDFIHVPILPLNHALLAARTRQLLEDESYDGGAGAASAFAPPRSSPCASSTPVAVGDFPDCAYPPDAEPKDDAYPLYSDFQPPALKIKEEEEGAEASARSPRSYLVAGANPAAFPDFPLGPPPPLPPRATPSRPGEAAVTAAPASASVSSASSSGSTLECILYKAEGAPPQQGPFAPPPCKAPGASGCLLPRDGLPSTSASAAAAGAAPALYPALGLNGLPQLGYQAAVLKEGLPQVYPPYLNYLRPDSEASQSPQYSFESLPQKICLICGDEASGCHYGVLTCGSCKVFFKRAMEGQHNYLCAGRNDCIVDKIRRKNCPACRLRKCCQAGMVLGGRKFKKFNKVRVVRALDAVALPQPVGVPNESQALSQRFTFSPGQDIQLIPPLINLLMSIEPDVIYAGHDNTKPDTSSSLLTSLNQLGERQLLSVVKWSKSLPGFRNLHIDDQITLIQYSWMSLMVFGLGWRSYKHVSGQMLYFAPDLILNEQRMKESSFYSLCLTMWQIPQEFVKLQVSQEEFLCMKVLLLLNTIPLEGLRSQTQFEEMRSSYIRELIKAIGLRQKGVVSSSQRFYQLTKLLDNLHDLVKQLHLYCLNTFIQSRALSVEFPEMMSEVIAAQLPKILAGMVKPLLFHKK
# ASSAY INFO: Progesterone receptor-antagonistic action in stably transfected SK-N-MC cells, PR-A, MMTV-LUC reporter
# Assay type: cell-based
# ASSAY CONTEXT: read-out: IC50 PR-A
# Excerpt: Determination of Progesterone Receptor-Antagonistic Action in Stable Transfectants of Human Neuroblastoma Cells (SK-N-MC Cells) with the Human Progesterone a or Progesterone B Receptor and an MN-LUC Reporter Construct […]
pIC50: −log10 of the molar value.
ATTRIBUTE MEASURED: pIC50

C[C@]12C[C@H](c3ccc(C#C/C=C\C#N)cc3)C3=C4CCC(=O)C=C4CCC3C1CC[C@@]2(O)C(F)(F)C(F)(F)F (stereo partly drawn)    9.14
C[C@]12C[C@H](c3ccc(C#CCNC(=O)Nc4ccc(Cl)cc4)cc3)C3=C4CCC(=O)C=C4CC[C@H]3[C@@H]1CC[C@@]2(O)C(F)(F)C(F)(F)F    9.40
CC(C)(O)C#Cc1ccc([C@H]2C[C@@]3(C)[C@@H](CC[C@@]3(O)C(F)(F)C(F)(F)F)[C@@H]3CCC4=CC(=O)CCC4=C32)cc1    9.44

(A) C[C@]12C[C@H](c3ccc(C#Cc4cccc(S(C)(=O)=O)c4)cc3)C3=C4CCC(=O)C=C4CC[C@H]3[C@@H]1CC[C@@]2(O)C(F)(F)C(F)(F)F
(B) C[C@]12C[C@H](c3ccc(C#CCNC(=O)Nc4ccc(N5CCCCC5)cc4)cc3)C3=C4CCC(=O)C=C4CC[C@H]3[C@@H]1CC[C@@]2(O)C(F)(F)C(F)(F)F
IN: Sorting by pIC50 in descending order, would A or B appear first? # answer = label of selected item
OUT: A
